Values were extracted from patent US20200399712A1.

Entries and their Threshold of tumor cell numbers for HPV-16 detection values follow.
system: HPV-16; assay: qPCR sensitivity against HPV-HNSCC tumor samples diluted among 10 ng normal human DNA; settings: Sample # 4
ASSAY READOUT: Threshold of tumor cell numbers for HPV-16 detection (tumor cells)

INSERT INTO measurements (molecule, observed_value) VALUES
  ('BR E1-5: HPV-16 E1 region primer/probe set, SEQ ID NO: 40-42 (same as SEQ ID NO: 1-3) (nucleic acid, chemistry not given here) DNA 1: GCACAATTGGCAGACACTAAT DNA 2: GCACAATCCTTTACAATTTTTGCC DNA 3: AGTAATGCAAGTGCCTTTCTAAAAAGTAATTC', 6.0),
  ('E6: previously designed (historical) HPV-16 E6 primers and Taqman probe, SEQ ID NO: 7-9, positive control (nucleic acid, Taqman probe, labels not given here) DNA 1: TCAGGACCCACAGGAGCG DNA 2: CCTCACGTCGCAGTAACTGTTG DNA 3: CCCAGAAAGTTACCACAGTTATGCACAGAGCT', 150.0),
  ('HR E5L2-4: primer/probe set for junction between E5 and L2, SEQ ID NO: 55-57 (same as SEQ ID NO: 4-6) (nucleic acid, chemistry not given here) DNA 1: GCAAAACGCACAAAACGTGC DNA 2: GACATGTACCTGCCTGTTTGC DNA 3: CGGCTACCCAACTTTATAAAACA', 60.0),
  ('BR E1-6: HPV-16 E1 region primer/probe set, SEQ ID NO: 43-45 (nucleic acid, chemistry not given here) DNA 1: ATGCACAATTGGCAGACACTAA DNA 2: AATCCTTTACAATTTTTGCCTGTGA DNA 3: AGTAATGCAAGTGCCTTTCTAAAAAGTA', 30.0),
  ('BR E1-4: HPV-16 E1 region primer/probe set, SEQ ID NO: 37-39 (nucleic acid, chemistry not given here) DNA 1: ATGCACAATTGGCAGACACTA DNA 2: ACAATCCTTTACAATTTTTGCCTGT DNA 3: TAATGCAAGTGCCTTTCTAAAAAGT', 6.0);
